Catalogue of Dispersibility in Japanese Pharmacopoeia Second Solution readings, one per entry.
experiment: Dispersibility test in Japanese Pharmacopoeia First and Second Solution
Format: physicochemical
assayContext: JP2, pH 6.8
assayMetric: Dispersibility in Japanese Pharmacopoeia Second Solution (µg/mL)

{"smilesRecord": "COC1CN([C@H]2C[C@@H](c3ncc(CCC(=O)O)s3)N(C(=O)Cc3cc(Cl)c(NC(=O)c4csc5ccccc45)cc3F)C2)C1", "unitOfMeasure": "µg/mL", "recordedValue": 1000}
{"smilesRecord": "C[C@@H]1CN([C@H]2C[C@@H](c3ncc(CCC(=O)O)s3)N(C(=O)Cc3cc(Cl)c(NC(=O)c4cn(C)c5ccccc45)cc3Cl)C2)C[C@H](C)O1", "unitOfMeasure": "µg/mL", "recordedValue": 1400}
{"smilesRecord": "C[C@@H]1CN([C@H]2C[C@@H](c3ncc(CCC(=O)O)s3)N(C(=O)Cc3cc(Cl)c(NC(=O)c4csc5ccccc45)cc3Cl)C2)C[C@H](C)O1", "unitOfMeasure": "µg/mL", "recordedValue": 1400}
{"smilesRecord": "C[C@@H]1CN([C@H]2C[C@@H](c3ncc(CCC(=O)O)s3)N(C(=O)Cc3cc(Cl)c(NC(=O)c4coc5ccccc45)cc3Cl)C2)C[C@H](C)O1", "unitOfMeasure": "µg/mL", "recordedValue": 1300}
{"smilesRecord": "COC1CN([C@H]2C[C@@H](c3ncc(CCC(=O)O)s3)N(C(=O)Cc3cc(Cl)c(NC(=O)c4cn(C)c5ccccc45)cc3F)C2)C1", "unitOfMeasure": "µg/mL", "recordedValue": 1000}
{"smilesRecord": "CO[C@H]1C[C@@H](c2ncc(CCC(=O)O)s2)N(C(=O)Cc2cc(Cl)c(Nc3nc4ccccc4s3)cc2Cl)C1", "unitOfMeasure": "µg/mL", "recordedValue": 770}

###

Examples of compounds with documented Dispersibility in Japanese Pharmacopoeia First Solution follow.
experiment: Dispersibility test in Japanese Pharmacopoeia First and Second Solution
Assay type: physicochemical
assayContext: JP1, pH 1.2
assayMetric: Dispersibility in Japanese Pharmacopoeia First Solution (µg/mL)

{"compound": "CO[C@H]1C[C@@H](c2ncc(CCC(=O)O)s2)N(C(=O)Cc2cc(Cl)c(Nc3nc4ccccc4s3)cc2F)C1 [Example 111]", "recordedValue": 570}
{"compound": "CCOC1CN([C@H]2C[C@@H](c3ncc(CCC(=O)O)s3)N(C(=O)Cc3cc(Cl)c(NC(=O)c4csc5ccccc45)cc3Cl)C2)C1 [Example 72]", "recordedValue": 960}
{"compound": "COC1CN([C@H]2C[C@@H](c3ncc(CCC(=O)O)s3)N(C(=O)Cc3cc(Cl)c(NC(=O)c4cn(C)c5ccccc45)cc3Cl)C2)C1 [Example 64]", "recordedValue": 1000}
{"compound": "O=C(O)CCc1cnc([C@@H]2C[C@H](N3CCN(CC(F)(F)F)CC3)CN2C(=O)Cc2cc(Cl)c(NC(=O)c3coc4ccccc34)cc2F)s1 [Example 83]", "recordedValue": 540}
{"compound": "CO[C@H]1C[C@@H](c2ncc(CCC(=O)O)s2)N(C(=O)Cc2cc(Cl)c(NC(=O)c3cn(C)c4ccccc34)cc2F)C1 [Example 2]", "recordedValue": 97}
{"compound": "CO[C@H]1C[C@@H](c2ncc(CCC(=O)O)s2)N(C(=O)Cc2ccc(Nc3nc4ccccc4s3)c(Cl)c2)C1 [Example 110]", "recordedValue": 730}

###

studySystem: hα4 and β1 integrins (VLA-4) (Homo sapiens, UniProt P05556+P13612)
Sequence (P13612 34-1032): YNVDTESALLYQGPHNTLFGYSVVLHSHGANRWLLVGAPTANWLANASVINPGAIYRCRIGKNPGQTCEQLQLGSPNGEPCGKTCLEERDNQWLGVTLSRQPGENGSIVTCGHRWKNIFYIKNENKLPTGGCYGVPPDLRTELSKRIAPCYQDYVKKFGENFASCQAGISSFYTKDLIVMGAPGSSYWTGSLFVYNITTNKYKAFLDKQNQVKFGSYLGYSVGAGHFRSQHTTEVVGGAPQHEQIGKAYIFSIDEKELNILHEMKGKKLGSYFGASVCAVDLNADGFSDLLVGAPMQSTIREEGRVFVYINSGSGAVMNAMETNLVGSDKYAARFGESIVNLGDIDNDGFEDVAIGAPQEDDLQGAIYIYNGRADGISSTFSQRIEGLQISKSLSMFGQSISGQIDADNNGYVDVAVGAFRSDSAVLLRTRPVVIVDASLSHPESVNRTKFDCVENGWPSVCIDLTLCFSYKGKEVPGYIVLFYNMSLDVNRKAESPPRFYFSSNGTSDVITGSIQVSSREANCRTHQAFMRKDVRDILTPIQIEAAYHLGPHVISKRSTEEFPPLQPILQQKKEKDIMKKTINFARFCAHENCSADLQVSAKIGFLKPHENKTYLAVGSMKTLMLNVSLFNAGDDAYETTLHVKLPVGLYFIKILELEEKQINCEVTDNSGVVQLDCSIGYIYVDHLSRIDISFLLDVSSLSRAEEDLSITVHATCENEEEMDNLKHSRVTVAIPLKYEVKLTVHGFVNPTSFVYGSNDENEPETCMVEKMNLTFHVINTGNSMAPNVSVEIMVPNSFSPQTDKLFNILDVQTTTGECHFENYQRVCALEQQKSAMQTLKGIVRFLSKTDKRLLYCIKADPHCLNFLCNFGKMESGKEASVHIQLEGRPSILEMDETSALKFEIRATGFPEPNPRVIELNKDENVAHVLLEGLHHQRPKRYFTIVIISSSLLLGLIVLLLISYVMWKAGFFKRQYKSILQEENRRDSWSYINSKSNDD
Sequence (P05556 21-798): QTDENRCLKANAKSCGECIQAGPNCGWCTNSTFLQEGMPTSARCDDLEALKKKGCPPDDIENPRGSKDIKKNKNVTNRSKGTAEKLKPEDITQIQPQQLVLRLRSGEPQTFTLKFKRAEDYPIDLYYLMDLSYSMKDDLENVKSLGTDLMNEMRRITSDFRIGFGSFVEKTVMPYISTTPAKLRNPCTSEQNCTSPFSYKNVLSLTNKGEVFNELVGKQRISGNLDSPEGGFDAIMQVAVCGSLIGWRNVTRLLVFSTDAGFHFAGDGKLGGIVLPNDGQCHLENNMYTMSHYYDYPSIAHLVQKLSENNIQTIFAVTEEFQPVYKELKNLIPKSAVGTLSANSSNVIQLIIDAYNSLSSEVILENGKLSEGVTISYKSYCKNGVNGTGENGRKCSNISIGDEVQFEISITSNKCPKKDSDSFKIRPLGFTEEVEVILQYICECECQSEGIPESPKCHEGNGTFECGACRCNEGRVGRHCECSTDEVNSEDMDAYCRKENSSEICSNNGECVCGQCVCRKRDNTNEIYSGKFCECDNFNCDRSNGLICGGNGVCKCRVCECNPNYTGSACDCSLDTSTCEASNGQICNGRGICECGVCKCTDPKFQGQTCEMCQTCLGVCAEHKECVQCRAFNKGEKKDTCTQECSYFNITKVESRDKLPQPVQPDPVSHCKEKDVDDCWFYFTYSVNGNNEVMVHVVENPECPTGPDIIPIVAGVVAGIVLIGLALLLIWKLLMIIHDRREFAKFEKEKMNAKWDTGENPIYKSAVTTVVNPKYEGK
experiment: In vitro evaluation: inhibition of binding of CHO cells expressing hα4 and β1 integrins to Eu3+-hVCAM-1 D1D7-IgG
assayContext: ligand Eu3+-hVCAM-1 D1D7-IgG 2 nM, Ki calculated from IC50
pKi: −log10 of the molar value.
assayMetric: pKi

{"molecule": "CCOC1CN([C@H]2C[C@@H](c3ncc(CCC(=O)O)s3)N(C(=O)Cc3cc(Cl)c(NC(=O)c4cn(C)c5ccccc45)cc3F)C2)C1 [Example 69]", "assayMetric": "pKi", "recordedValue": 9.15}
{"molecule": "O=C(O)CCc1cnc([C@@H]2C[C@H](N3CCC(F)(F)CC3)CN2C(=O)Cc2cc(Cl)c(NC(=O)c3coc4ccccc34)cc2Cl)s1 [Example 78]", "assayMetric": "pKi", "recordedValue": 8.92}
{"molecule": "CO[C@H]1C[C@@H](c2ncc(CCC(=O)O)s2)N(C(=O)Cc2cc(Cl)c(NC(=O)c3cn(C)c4ccccc34)cc2Cl)C1 [Example 1]", "assayMetric": "pKi", "recordedValue": 8.89}
{"molecule": "CO[C@H]1C[C@@H](c2ncc(CCC(=O)O)o2)N(C(=O)Cc2cc(Cl)c(NC(=O)c3csc4ccccc34)cc2F)C1 [Example 15]", "assayMetric": "pKi", "recordedValue": 8.35}
{"molecule": "COc1cc(CC(=O)N[C@@H](CC(C)C)c2cc(CCC(=O)O)on2)ccc1NC(=O)Nc1ccccc1C [CP664511]", "assayMetric": "pKi", "recordedValue": 8.82}
{"molecule": "C[C@@H]1CN([C@H]2C[C@@H](c3ncc(CCC(=O)O)s3)N(C(=O)Cc3cc(Cl)c(NC(=O)c4csc5ccccc45)cc3F)C2)C[C@H](C)O1 [Example 87]", "assayMetric": "pKi", "recordedValue": 9.00}

###

experiment: Dispersibility test in Japanese Pharmacopoeia First and Second Solution
Assay type: physicochemical
assayContext: JP1, pH 1.2
Items are presented alongside their recorded Dispersibility in Japanese Pharmacopoeia First Solution.
assayMetric: Dispersibility in Japanese Pharmacopoeia First Solution (µg/mL)

{"smilesRecord": "O=C(O)CCc1cnc([C@@H]2C[C@H](N3CCN(CC(F)(F)F)CC3)CN2C(=O)Cc2cc(Cl)c(NC(=O)c3csc4ccccc34)cc2F)s1", "unitOfMeasure": "µg/mL", "recordedValue": 210}
{"smilesRecord": "CCOC1CN([C@H]2C[C@@H](c3ncc(CCC(=O)O)s3)N(C(=O)Cc3cc(Cl)c(NC(=O)c4csc5ccccc45)cc3F)C2)C1", "unitOfMeasure": "µg/mL", "recordedValue": 940}
{"smilesRecord": "Cn1cc(C(=O)Nc2cc(Cl)c(CC(=O)N3C[C@@H](N4CCC(F)(F)CC4)C[C@H]3c3ncc(CCC(=O)O)s3)cc2Cl)c2ccccc21", "unitOfMeasure": "µg/mL", "recordedValue": 130}
{"smilesRecord": "Cn1cc(C(=O)Nc2cc(F)c(CC(=O)N3C[C@@H](N4CCN(CC(F)(F)F)CC4)C[C@H]3c3ncc(CCC(=O)O)s3)cc2Cl)c2ccccc21", "unitOfMeasure": "µg/mL", "recordedValue": 250}

###

studySystem: hα4 and β1 integrins (VLA-4) (Homo sapiens, UniProt P05556+P13612)
experiment: In vitro evaluation: inhibition of binding of CHO cells expressing hα4 and β1 integrins to Eu3+-hVCAM-1 D1D7-IgG
assayContext: ligand Eu3+-hVCAM-1 D1D7-IgG 2 nM, Ki calculated from IC50
Consider the cut-off 2 nM. If the recorded Ki is strictly smaller, the label is fulfilled; if not, the label is not fulfilled.

{"compound": "CCOC[C@@H]1CC[C@@H](c2ncc(CCC(=O)O)s2)N1C(=O)Cc1ccc2nc(Nc3cc(F)ccc3C)oc2c1F [Example 51]", "assignedLabel": "not fulfilled"}
{"compound": "Cn1cc(C(=O)Nc2cc(Cl)c(CC(=O)N3C[C@@H](N4CCCCC4)C[C@H]3c3ncc(CCC(=O)O)s3)cc2Cl)c2ccccc21 [Example 46]", "assignedLabel": "fulfilled"}
{"compound": "COC1CN([C@H]2C[C@@H](c3ncc(CCC(=O)O)s3)N(C(=O)Cc3cc(Cl)c(NC(=O)c4csc5ccccc45)cc3Cl)C2)C1 [Example 66]", "assignedLabel": "fulfilled"}
{"compound": "CCOC[C@@H]1CC[C@@H](c2ncc(CCC(=O)O)s2)N1C(=O)Cc1cc(Cl)c(NC(=O)c2cn(C)c3ccccc23)cc1Cl [Example 48]", "assignedLabel": "not fulfilled"}
{"compound": "CO[C@H]1C[C@@H](c2ncc(CCC(=O)O)s2)N(C(=O)Cc2cc(Cl)c(NC(=O)c3csc4ccccc34)cc2F)C1 [Example 4]", "assignedLabel": "fulfilled"}
{"compound": "Cn1cc(C(=O)Nc2cc(F)c(CC(=O)N3C[C@@H](F)C[C@H]3c3ncc(CCC(=O)O)s3)cc2Cl)c2ccccc21 [Example 19]", "assignedLabel": "fulfilled"}

###

studySystem: hα4 and β1 integrins (VLA-4) (Homo sapiens, UniProt P05556+P13612)
experiment: In vitro evaluation: inhibition of binding of CHO cells expressing hα4 and β1 integrins to Eu3+-hVCAM-1 D1D7-IgG
assayContext: ligand Eu3+-hVCAM-1 D1D7-IgG 2 nM, Ki calculated from IC50
pKi: −log10 of the molar value.

{"molecule": "O=C(O)CCc1cnc([C@@H]2C[C@H](F)CN2C(=O)Cc2cc(Cl)c(NC(=O)c3csc4ccccc34)cc2F)s1 [Example 21]", "studySystem": "hα4 and β1 integrins (VLA-4) (Homo sapiens, UniProt P05556+P13612)", "pKi": 9.21}
{"molecule": "CCO[C@H]1CCN(C(=O)Cc2cc(Cl)c(NC(=O)c3coc4ccccc34)cc2F)[C@@H]1c1ncc(CCC(=O)O)o1 [Example 101]", "studySystem": "hα4 and β1 integrins (VLA-4) (Homo sapiens, UniProt P05556+P13612)", "pKi": 8.01}
{"molecule": "COc1ccc(F)cc1Nc1nc2ccc(CC(=O)N3C[C@@H](OC)C[C@H]3c3ncc(CCC(=O)O)s3)c(F)c2o1 [Example 9]", "studySystem": "hα4 and β1 integrins (VLA-4) (Homo sapiens, UniProt P05556+P13612)", "pKi": 9.02}
{"molecule": "CO[C@H]1C[C@@H](c2ncc(CCC(=O)O)s2)N(C(=O)Cc2cc(Cl)c(NC(=O)c3coc4ccccc34)cc2F)C1 [Example 6]", "studySystem": "hα4 and β1 integrins (VLA-4) (Homo sapiens, UniProt P05556+P13612)", "pKi": 9.40}
{"molecule": "O=C(O)CCc1cnc([C@@H]2[C@@H](O)CCN2C(=O)Cc2ccc(Nc3nc4ccccc4s3)c(Cl)c2)s1 [Example 119]", "studySystem": "hα4 and β1 integrins (VLA-4) (Homo sapiens, UniProt P05556+P13612)", "pKi": 8.21}
{"molecule": "CO[C@H]1C[C@@H](c2ncc(CCC(=O)O)s2)N(C(=O)Cc2cc(Cl)c(Nc3nc4cc(F)ccc4s3)cc2F)C1 [Example 113]", "studySystem": "hα4 and β1 integrins (VLA-4) (Homo sapiens, UniProt P05556+P13612)", "pKi": 8.30}
{"molecule": "CON(C)[C@H]1C[C@@H](c2ncc(CCC(=O)O)s2)N(C(=O)Cc2cc(Cl)c(NC(=O)c3csc4ccccc34)cc2Cl)C1 [Example 130]", "studySystem": "hα4 and β1 integrins (VLA-4) (Homo sapiens, UniProt P05556+P13612)", "pKi": 8.46}
{"molecule": "CO[C@H]1C[C@@H](c2ncc(CCC(=O)O)s2)N(C(=O)Cc2ccc3nc(-c4cn(C)c5ccccc45)oc3c2F)C1 [Example 11]", "studySystem": "hα4 and β1 integrins (VLA-4) (Homo sapiens, UniProt P05556+P13612)", "pKi": 9.30}
{"molecule": "COC[C@@H]1CC[C@@H](c2ncc(CCC(=O)O)s2)N1C(=O)Cc1cc(Cl)c(NC(=O)c2cn(C)c3ccccc23)cc1F [Example 53]", "studySystem": "hα4 and β1 integrins (VLA-4) (Homo sapiens, UniProt P05556+P13612)", "pKi": 7.80}
{"molecule": "O=C(O)CCc1cnc([C@@H]2CCCN2C(=O)Cc2cc(Cl)c(NC(=O)c3csc4ccccc34)cc2Cl)s1 [Example 28]", "studySystem": "hα4 and β1 integrins (VLA-4) (Homo sapiens, UniProt P05556+P13612)", "pKi": 9.07}
{"molecule": "COC1CN([C@H]2C[C@@H](c3ncc(CCC(=O)O)s3)N(C(=O)Cc3cc(Cl)c(NC(=O)c4cn(C)c5ccccc45)cc3Cl)C2)C1 [Example 64]", "studySystem": "hα4 and β1 integrins (VLA-4) (Homo sapiens, UniProt P05556+P13612)", "pKi": 8.42}
{"molecule": "Cn1cc(C(=O)Nc2cc(F)c(CC(=O)N3C[C@@H](N4CCC(F)(F)CC4)C[C@H]3c3ncc(CCC(=O)O)s3)cc2Cl)c2ccccc21 [Example 73]", "studySystem": "hα4 and β1 integrins (VLA-4) (Homo sapiens, UniProt P05556+P13612)", "pKi": 8.96}
{"molecule": "CO[C@H]1C[C@@H](c2ncc(CCC(=O)O)s2)N(C(=O)Cc2cc(Cl)c(NC(=O)c3nn(C)c4ccccc34)cc2F)C1 [Example 7]", "studySystem": "hα4 and β1 integrins (VLA-4) (Homo sapiens, UniProt P05556+P13612)", "pKi": 9.01}
